# EXPERIMENTAL_TARGET: his-labeled human IL-13 (immunogen A) (human) (UniProt P35225)
# ASSAY_SUMMARY: FACS blocking, biotin-IL-13 on IL-13Ra2 HEK293 cells; antibody at 0.01 nM
VALUE_TYPE: mean fluorescence intensity
Keep the answer to the number alone.

Look over these answered cases.
Recorded mean fluorescence intensity for 28A2E11 (lead antibody, mouse hybridoma) (antibody, V domains shown, Mouse monoclonal antibody purified from hybridoma supernatant on Protein G) VH: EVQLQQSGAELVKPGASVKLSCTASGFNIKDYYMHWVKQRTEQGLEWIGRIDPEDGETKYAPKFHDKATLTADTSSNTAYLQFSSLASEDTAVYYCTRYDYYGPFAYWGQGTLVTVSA VL: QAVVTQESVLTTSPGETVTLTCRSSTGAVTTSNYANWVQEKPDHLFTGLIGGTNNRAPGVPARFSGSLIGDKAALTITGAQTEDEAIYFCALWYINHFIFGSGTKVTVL , please?
79.7

Recorded mean fluorescence intensity for c35E2C3 (mouse-human chimeric IL-13 antibody) (antibody, V domains shown) VH: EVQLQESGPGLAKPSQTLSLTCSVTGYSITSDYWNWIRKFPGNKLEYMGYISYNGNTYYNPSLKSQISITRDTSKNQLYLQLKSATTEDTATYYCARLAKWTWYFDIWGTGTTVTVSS VL: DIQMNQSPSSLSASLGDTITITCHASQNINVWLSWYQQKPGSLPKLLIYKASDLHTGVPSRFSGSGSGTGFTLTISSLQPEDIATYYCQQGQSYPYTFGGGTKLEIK , please?
98.1

Attention now shifts to the item below.
Recorded mean fluorescence intensity for 29D9H8 (lead antibody, mouse hybridoma) (antibody, V domains shown, Mouse monoclonal antibody purified from hybridoma supernatant on Protein G) VH: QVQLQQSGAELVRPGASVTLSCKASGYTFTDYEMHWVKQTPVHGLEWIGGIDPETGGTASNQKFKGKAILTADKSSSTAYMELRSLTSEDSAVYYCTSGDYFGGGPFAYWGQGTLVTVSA VL: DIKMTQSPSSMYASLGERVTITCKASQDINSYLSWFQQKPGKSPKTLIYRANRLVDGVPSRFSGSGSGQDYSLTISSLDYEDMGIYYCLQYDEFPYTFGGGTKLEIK , please?
74.6

Just for reference, patent US20190309059A1 is where these values come from.
